B1: TPR 5TU (parent)
chain: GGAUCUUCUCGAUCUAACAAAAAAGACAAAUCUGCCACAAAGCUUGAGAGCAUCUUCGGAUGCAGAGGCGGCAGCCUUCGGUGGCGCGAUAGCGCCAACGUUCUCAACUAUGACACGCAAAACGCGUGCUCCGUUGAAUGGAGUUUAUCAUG

# Variants of: B1
# Assay Remarks: polymerase ribozyme fitness, log enrichment relative to wild type (log ratio); higher = more active; in vitro selection for triplet polymerase activity
Variants at the floor of the assay were thinned out.
polymerase ribozyme fitness (log ratio) by entry:

{"Mut": "C43G U55C G70A C85A C87G C95U G133U", "Sign Qualifier": "≤", "polymerase ribozyme fitness (log ratio)": -4.2}
{"Mut": "U4C A52U U82G C96A", "Sign Qualifier": "=", "polymerase ribozyme fitness (log ratio)": -3.56}
{"Mut": "A22C A60G C87U", "Sign Qualifier": "=", "polymerase ribozyme fitness (log ratio)": 0.179}
{"Mut": "U13G C96G A120G", "Sign Qualifier": "=", "polymerase ribozyme fitness (log ratio)": -1.51}
{"Mut": "U31A", "Sign Qualifier": "=", "polymerase ribozyme fitness (log ratio)": 0.37}
{"Mut": "A22C A40U C54U G94A", "Sign Qualifier": "=", "polymerase ribozyme fitness (log ratio)": -0.982}
{"Mut": "A41U G117C", "Sign Qualifier": "=", "polymerase ribozyme fitness (log ratio)": -0.836}
{"Mut": "A40U C57G A91U A138U", "Sign Qualifier": "≤", "polymerase ribozyme fitness (log ratio)": -4.2}
{"Mut": "A12U G92U C125U", "Sign Qualifier": "=", "polymerase ribozyme fitness (log ratio)": -1.06}
{"Mut": "A21C", "Sign Qualifier": "=", "polymerase ribozyme fitness (log ratio)": 0.199}
{"Mut": "G143U", "Sign Qualifier": "=", "polymerase ribozyme fitness (log ratio)": -1.84}
{"Mut": "C14U G50C A89U C93G G143U", "Sign Qualifier": "≤", "polymerase ribozyme fitness (log ratio)": -4.2}
{"Mut": "C76A G83A U134G", "Sign Qualifier": "=", "polymerase ribozyme fitness (log ratio)": -3.45}
{"Mut": "A40C U45A A66U G83A G88U A97C A122U A138U", "Sign Qualifier": "≤", "polymerase ribozyme fitness (log ratio)": -4.2}
{"Mut": "A3G A17U A47U U55G", "Sign Qualifier": "=", "polymerase ribozyme fitness (log ratio)": -0.403}
{"Mut": "C76G C85G G92A A120C C129U", "Sign Qualifier": "≤", "polymerase ribozyme fitness (log ratio)": -4.2}
{"Mut": "C14U G140A", "Sign Qualifier": "≤", "polymerase ribozyme fitness (log ratio)": -4.2}
{"Mut": "A24G G83U", "Sign Qualifier": "=", "polymerase ribozyme fitness (log ratio)": -3.03}
{"Mut": "C14G G48C U146A", "Sign Qualifier": "=", "polymerase ribozyme fitness (log ratio)": -4.06}
{"Mut": "C18G A26U C35U U78A C99G U135C A147C", "Sign Qualifier": "≤", "polymerase ribozyme fitness (log ratio)": -4.2}
{"Mut": "A28U C54A G92U C118U G124U C131A A137U", "Sign Qualifier": "≤", "polymerase ribozyme fitness (log ratio)": -4.2}
{"Mut": "U31C C95A C96A U134C G143A U145G", "Sign Qualifier": "=", "polymerase ribozyme fitness (log ratio)": -3.45}
{"Mut": "C8A G50U G74C G80A C85U U139C G141C", "Sign Qualifier": "≤", "polymerase ribozyme fitness (log ratio)": -4.2}
{"Mut": "C76A C96U A121C", "Sign Qualifier": "=", "polymerase ribozyme fitness (log ratio)": 0.584}
{"Mut": "A3G C5U C35U C85U A106G", "Sign Qualifier": "=", "polymerase ribozyme fitness (log ratio)": 0.235}
{"Mut": "C36U C93U C96G C114G C116A A138C U139G U148C G152A", "Sign Qualifier": "=", "polymerase ribozyme fitness (log ratio)": -4.1}
{"Mut": "A49C C54A U78C C85U", "Sign Qualifier": "=", "polymerase ribozyme fitness (log ratio)": -3.91}
{"Mut": "A28U A147C U151C G152C", "Sign Qualifier": "≤", "polymerase ribozyme fitness (log ratio)": -4.2}
{"Mut": "A52G C57A G58A G83U C95U", "Sign Qualifier": "=", "polymerase ribozyme fitness (log ratio)": -0.758}
{"Mut": "C27G A29C C87G A121U", "Sign Qualifier": "≤", "polymerase ribozyme fitness (log ratio)": -4.2}
{"Mut": "C8U A17G A21U C57U G80A C96G", "Sign Qualifier": "≤", "polymerase ribozyme fitness (log ratio)": -4.2}
{"Mut": "C38U G50A", "Sign Qualifier": "=", "polymerase ribozyme fitness (log ratio)": -2.15}
{"Mut": "U6A A29U G81A G92C C114U", "Sign Qualifier": "≤", "polymerase ribozyme fitness (log ratio)": -4.2}
{"Mut": "C43A G50A A106G", "Sign Qualifier": "≤", "polymerase ribozyme fitness (log ratio)": -4.2}
{"Mut": "C105U A106C", "Sign Qualifier": "=", "polymerase ribozyme fitness (log ratio)": 0.388}
{"Mut": "C57A G86U", "Sign Qualifier": "=", "polymerase ribozyme fitness (log ratio)": -1.32}
{"Mut": "A17U", "Sign Qualifier": "=", "polymerase ribozyme fitness (log ratio)": -0.256}
{"Mut": "C57U C95G A120G G143A", "Sign Qualifier": "=", "polymerase ribozyme fitness (log ratio)": -2.18}
{"Mut": "A64C G71A U144G U148G", "Sign Qualifier": "≤", "polymerase ribozyme fitness (log ratio)": -4.2}
{"Mut": "A16G U33G C95G", "Sign Qualifier": "≤", "polymerase ribozyme fitness (log ratio)": -4.2}
{"Mut": "A16G A49U G62A G92A C96A", "Sign Qualifier": "≤", "polymerase ribozyme fitness (log ratio)": -4.2}
{"Mut": "U55A G58U C93G", "Sign Qualifier": "=", "polymerase ribozyme fitness (log ratio)": -3.78}
{"Mut": "U53A G59A C85A G88A U151A", "Sign Qualifier": "≤", "polymerase ribozyme fitness (log ratio)": -4.2}
{"Mut": "A30C C63U A66C A73U C85A A91C U109G", "Sign Qualifier": "≤", "polymerase ribozyme fitness (log ratio)": -4.2}
{"Mut": "A17G C87A C103U", "Sign Qualifier": "≤", "polymerase ribozyme fitness (log ratio)": -4.2}
{"Mut": "A3G A24C U53A U61A C85G", "Sign Qualifier": "≤", "polymerase ribozyme fitness (log ratio)": -4.2}
{"Mut": "C32G G50U C79G G88U G94C U101C C125A", "Sign Qualifier": "≤", "polymerase ribozyme fitness (log ratio)": -4.2}
{"Mut": "A3G A20U C36A C87G C129A U139C U146G", "Sign Qualifier": "≤", "polymerase ribozyme fitness (log ratio)": -4.2}
{"Mut": "G11U C35U C51U U55G G59U G68A G80A G83A", "Sign Qualifier": "≤", "polymerase ribozyme fitness (log ratio)": -4.2}
{"Mut": "U9C C14U C57G C93G G140U", "Sign Qualifier": "≤", "polymerase ribozyme fitness (log ratio)": -4.2}
{"Mut": "C72G C99G U139A", "Sign Qualifier": "≤", "polymerase ribozyme fitness (log ratio)": -4.2}
{"Mut": "G48A C96U", "Sign Qualifier": "=", "polymerase ribozyme fitness (log ratio)": -0.356}
{"Mut": "A28C A52G G88C A89G U101C C105G", "Sign Qualifier": "≤", "polymerase ribozyme fitness (log ratio)": -4.2}
{"Mut": "A29U A37C G80A G88C G133U", "Sign Qualifier": "≤", "polymerase ribozyme fitness (log ratio)": -4.2}
{"Mut": "A60U G67A A91G A137U", "Sign Qualifier": "≤", "polymerase ribozyme fitness (log ratio)": -4.2}
{"Mut": "A26C U78A G84A G126C C149G", "Sign Qualifier": "≤", "polymerase ribozyme fitness (log ratio)": -4.2}
{"Mut": "A37U A113U C116U G136C", "Sign Qualifier": "≤", "polymerase ribozyme fitness (log ratio)": -4.2}
{"Mut": "C27U C35U A49U C51G U53A G86U U151G", "Sign Qualifier": "≤", "polymerase ribozyme fitness (log ratio)": -4.2}
{"Mut": "U56C C85G C149A", "Sign Qualifier": "≤", "polymerase ribozyme fitness (log ratio)": -4.2}
{"Mut": "U82C U104G G117U", "Sign Qualifier": "=", "polymerase ribozyme fitness (log ratio)": 0.147}
{"Mut": "G84U G86A U90A G100A", "Sign Qualifier": "≤", "polymerase ribozyme fitness (log ratio)": -4.2}
{"Mut": "U77G G84A G117U U135G", "Sign Qualifier": "≤", "polymerase ribozyme fitness (log ratio)": -4.2}
{"Mut": "C14G C57U", "Sign Qualifier": "=", "polymerase ribozyme fitness (log ratio)": -2.06}
{"Mut": "A22U A49U G81U G86C G141C", "Sign Qualifier": "=", "polymerase ribozyme fitness (log ratio)": -4.13}
{"Mut": "G46U G58U A89U U102G C118G C129A G152U", "Sign Qualifier": "≤", "polymerase ribozyme fitness (log ratio)": -4.2}
{"Mut": "A41G G94C", "Sign Qualifier": "=", "polymerase ribozyme fitness (log ratio)": 0.425}
{"Mut": "G25U A52C C63U G88C U127C", "Sign Qualifier": "≤", "polymerase ribozyme fitness (log ratio)": -4.2}
{"Mut": "G50U C57G", "Sign Qualifier": "=", "polymerase ribozyme fitness (log ratio)": 0.0255}
{"Mut": "C75U G92U", "Sign Qualifier": "=", "polymerase ribozyme fitness (log ratio)": -2.38}
{"Mut": "A19G A41C", "Sign Qualifier": "=", "polymerase ribozyme fitness (log ratio)": -1.52}
{"Mut": "C72U C85U C95U", "Sign Qualifier": "=", "polymerase ribozyme fitness (log ratio)": -0.261}
{"Mut": "A17G U61A G71A G143A", "Sign Qualifier": "≤", "polymerase ribozyme fitness (log ratio)": -4.2}
{"Mut": "U55A G88U", "Sign Qualifier": "=", "polymerase ribozyme fitness (log ratio)": -4.14}
{"Mut": "C18U C85A U144G", "Sign Qualifier": "=", "polymerase ribozyme fitness (log ratio)": 0.299}
{"Mut": "G86A G141A", "Sign Qualifier": "=", "polymerase ribozyme fitness (log ratio)": -0.545}
{"Mut": "G25C A40U C87U C93A C95U", "Sign Qualifier": "≤", "polymerase ribozyme fitness (log ratio)": -4.2}
{"Mut": "G83C C99A G133A", "Sign Qualifier": "=", "polymerase ribozyme fitness (log ratio)": -4.12}
{"Mut": "C27U A120G C125A", "Sign Qualifier": "=", "polymerase ribozyme fitness (log ratio)": -1.81}
{"Mut": "A17U A19U A22U U61A G83A G84A G100U", "Sign Qualifier": "≤", "polymerase ribozyme fitness (log ratio)": -4.2}
{"Mut": "A47G C51G C76U C87U U104G A107U U151C", "Sign Qualifier": "≤", "polymerase ribozyme fitness (log ratio)": -4.2}
{"Mut": "A47U C93G", "Sign Qualifier": "=", "polymerase ribozyme fitness (log ratio)": -3.23}
{"Mut": "A17U G46U G84A C105U", "Sign Qualifier": "=", "polymerase ribozyme fitness (log ratio)": -0.266}
{"Mut": "A3G G94A", "Sign Qualifier": "=", "polymerase ribozyme fitness (log ratio)": -1.67}
{"Mut": "C36A G92A", "Sign Qualifier": "=", "polymerase ribozyme fitness (log ratio)": -3.98}
{"Mut": "C38U G83C C132A", "Sign Qualifier": "≤", "polymerase ribozyme fitness (log ratio)": -4.2}
{"Mut": "A3G C8G A23C C54A G80C G81A A89U C93G", "Sign Qualifier": "≤", "polymerase ribozyme fitness (log ratio)": -4.2}
{"Mut": "A22G C51G A91U G94U U144C", "Sign Qualifier": "≤", "polymerase ribozyme fitness (log ratio)": -4.2}
{"Mut": "A52G C69G C85G A97U G126A G141U", "Sign Qualifier": "≤", "polymerase ribozyme fitness (log ratio)": -4.2}
{"Mut": "C14A G58C", "Sign Qualifier": "=", "polymerase ribozyme fitness (log ratio)": -1.28}
{"Mut": "C69G G84A U101C", "Sign Qualifier": "=", "polymerase ribozyme fitness (log ratio)": -2.05}
{"Mut": "G50C C93A C103G A113G A115U G140C", "Sign Qualifier": "≤", "polymerase ribozyme fitness (log ratio)": -4.2}
